# assay target: Estrogen receptor (Mus musculus) (UniProt O08537+P19785)
# Sequence (O08537 whole entry, looked up): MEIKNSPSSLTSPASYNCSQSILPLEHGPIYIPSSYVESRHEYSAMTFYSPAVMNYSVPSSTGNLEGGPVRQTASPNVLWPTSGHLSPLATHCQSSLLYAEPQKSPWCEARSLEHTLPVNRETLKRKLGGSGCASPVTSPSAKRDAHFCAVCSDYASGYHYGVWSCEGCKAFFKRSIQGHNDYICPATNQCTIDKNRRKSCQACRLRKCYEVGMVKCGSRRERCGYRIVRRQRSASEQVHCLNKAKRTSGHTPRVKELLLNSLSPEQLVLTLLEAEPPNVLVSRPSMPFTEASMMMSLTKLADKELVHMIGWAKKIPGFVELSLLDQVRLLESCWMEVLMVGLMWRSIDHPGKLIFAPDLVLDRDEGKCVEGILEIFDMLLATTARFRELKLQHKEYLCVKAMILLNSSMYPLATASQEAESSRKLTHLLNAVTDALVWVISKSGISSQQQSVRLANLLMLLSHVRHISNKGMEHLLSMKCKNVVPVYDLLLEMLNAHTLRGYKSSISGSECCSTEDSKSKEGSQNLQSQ
# Sequence (P19785 whole entry, looked up): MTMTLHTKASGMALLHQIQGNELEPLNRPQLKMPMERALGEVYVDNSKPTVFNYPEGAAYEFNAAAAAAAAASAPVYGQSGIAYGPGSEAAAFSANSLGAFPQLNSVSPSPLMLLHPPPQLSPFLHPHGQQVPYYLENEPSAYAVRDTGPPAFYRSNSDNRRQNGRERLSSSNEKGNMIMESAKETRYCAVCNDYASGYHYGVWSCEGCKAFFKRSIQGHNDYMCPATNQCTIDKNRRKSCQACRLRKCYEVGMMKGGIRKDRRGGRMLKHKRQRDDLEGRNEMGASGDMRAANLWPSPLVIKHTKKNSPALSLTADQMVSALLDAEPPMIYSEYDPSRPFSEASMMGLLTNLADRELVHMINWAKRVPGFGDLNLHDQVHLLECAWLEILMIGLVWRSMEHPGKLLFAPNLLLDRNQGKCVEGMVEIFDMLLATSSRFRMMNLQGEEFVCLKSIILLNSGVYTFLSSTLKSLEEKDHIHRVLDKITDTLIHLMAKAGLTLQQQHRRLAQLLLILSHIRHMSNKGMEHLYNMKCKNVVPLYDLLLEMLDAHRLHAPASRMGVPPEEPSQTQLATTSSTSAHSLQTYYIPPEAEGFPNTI
# test protocol: Anti-estrogenic activity in mouse uterotrophic assay at 1 ug
# Assay type: functional
# Parameters: unit not given here
recorded metric: Activity

| compound | recorded metric | assay value |
| --- | --- | --- |
| CCC(c1ccc(C)c(O)c1)C(CC)c1ccc(C)c(O)c1 (stereo not given) | Activity | 34.3 |
| CCC(c1cc(O)ccc1Cl)C(CC)c1cc(O)ccc1Cl (stereo not given) | Activity | 40.6 |
| CCC(c1cc(O)ccc1C)C(CC)c1cc(O)ccc1C (stereo not given) | Activity | 27.2 |
| CCC(c1ccc(F)c(O)c1)C(CC)c1ccc(F)c(O)c1 (stereo not given) | Activity | 34.2 |
| CCC(c1ccc(N)c(O)c1)C(CC)c1ccc(N)c(O)c1 (stereo not given) | Activity | 33 |

====

# assay target: Estrogen receptor (Mus musculus) (UniProt O08537+P19785)
# test protocol: Estrogenic activity in mouse uterotrophic assay at 0 ug
# Format: functional
# Set-up: unit not given here
recorded metric: Activity

| compound | assay target | assay value |
| --- | --- | --- |
| CCC(c1cccc(O)c1)C(CC)c1cccc(O)c1 (configuration not stated) | Estrogen receptor (Mus musculus) (UniProt O08537+P19785) | 10.7 |
| CCC(c1ccc(N)c(O)c1)C(CC)c1ccc(N)c(O)c1 (configuration not stated) | Estrogen receptor (Mus musculus) (UniProt O08537+P19785) | 13.9 |
| CCC(c1ccc(C)c(O)c1)C(CC)c1ccc(C)c(O)c1 (configuration not stated) | Estrogen receptor (Mus musculus) (UniProt O08537+P19785) | 13.9 |
| CCC(c1cc(O)ccc1F)C(CC)c1cc(O)ccc1F (configuration not stated) | Estrogen receptor (Mus musculus) (UniProt O08537+P19785) | 13.1 |
| CCC(c1cc(O)ccc1Cl)C(CC)c1cc(O)ccc1Cl (configuration not stated) | Estrogen receptor (Mus musculus) (UniProt O08537+P19785) | 13.7 |

[A] CCC(c1ccc(F)c(O)c1)C(CC)c1ccc(F)c(O)c1 (configuration not stated)
[B] CCC(c1cc(O)ccc1C)C(CC)c1cc(O)ccc1C (configuration not stated)
Task: For the pair A and B , which entry has the numerically smaller recorded Activity? # answer = label of selected item
Output: A

====

# assay target: Estrogen receptor (Mus musculus) (UniProt O08537+P19785)
# test protocol: Anti-estrogenic activity as inhibition of estrone-stimulated uterine growth in mice at 1 mg/kg
# Assay type: functional, organism-based
# Design: dose 1 mg/kg
recorded metric: inhibition (%)

| molecule | inhibition, % |
| --- | --- |
| CCC(c1cc(O)ccc1C)C(CC)c1cc(O)ccc1C (centres undefined) | 39 |
| CCC(c1ccc(N)c(O)c1)C(CC)c1ccc(N)c(O)c1 (centres undefined) | 29 |

[I] CCC(c1ccc(C)c(O)c1)C(CC)c1ccc(C)c(O)c1 (centres undefined)
[II] CCC(c1ccc(F)c(O)c1)C(CC)c1ccc(F)c(O)c1 (centres undefined)
Task: For the pair I and II , which entry has the numerically smaller recorded inhibition? # answer = label of selected item
Output: II
(II: 7%, I: 24%)

====

# assay target: Estrogen receptor (Mus musculus) (UniProt O08537+P19785)
# test protocol: Estrogenic activity in mouse uterotrophic assay at 10 ug
# Type: functional
# Parameters: unit not given here
recorded metric: Activity

| compound | assay target | Activity |
| --- | --- | --- |
| CCC(c1ccc(C)c(O)c1)C(CC)c1ccc(C)c(O)c1 (stereo not given) | Estrogen receptor (Mus musculus) (UniProt O08537+P19785) | 45 |
| CCC(c1cc(O)ccc1C)C(CC)c1cc(O)ccc1C (stereo not given) | Estrogen receptor (Mus musculus) (UniProt O08537+P19785) | 37.5 |
| CCC(c1ccc(N)c(O)c1)C(CC)c1ccc(N)c(O)c1 (stereo not given) | Estrogen receptor (Mus musculus) (UniProt O08537+P19785) | 19.9 |

[P] CCC(c1cc(O)ccc1Cl)C(CC)c1cc(O)ccc1Cl (stereo not given)
[Q] CCC(c1cc(O)ccc1F)C(CC)c1cc(O)ccc1F (stereo not given)
Task: For the pair P and Q , which entry has the numerically smaller recorded Activity? # answer = label of selected item
Output: Q

====

# assay target: Estrogen receptor (Mus musculus) (UniProt O08537+P19785)
# test protocol: Anti-estrogenic activity in mouse uterotrophic assay at 100 ug
# Format: functional
# Parameters: unit not given here
recorded metric: Activity

| compound | Activity |
| --- | --- |
| CCC(c1cc(O)ccc1F)C(CC)c1cc(O)ccc1F (centres undefined) | 41.2 |
| CCC(c1cc(O)ccc1C)C(CC)c1cc(O)ccc1C (centres undefined) | 31 |
| CCC(c1cc(O)ccc1Cl)C(CC)c1cc(O)ccc1Cl (centres undefined) | 41.5 |
| CCC(c1ccc(C)c(O)c1)C(CC)c1ccc(C)c(O)c1 (centres undefined) | 41.8 |
